system: RPMI-8226 leukemia; test: NCI-60 one-dose screen, 48 h; conditions: 10 µM unless noted
This is part of a sample that, as a whole, favours compounds with a hit. Of some 83,000 tested, about 20% had one in any assay. Activity calls are given as the source filed them. The calls were made as follows: active = growth percent below 10; inactive = the rest.
Answer with one of the outcomes true = active, false = inactive

Write down the call the test reported for this molecule. Item: O=S1(=O)NCCN1CCNc1nccc(-c2c(-c3cccc(O)c3)nc3sccn23)n1
false

Write down the call the test reported for this molecule. Item: CC(C)c1cccc(C#N)c1
false

Write down the call the test reported for this molecule. Item: COc1ccc(-c2ccc(-c3ccc(C(=N)N)s3)s2)cc1
true

Write down the call the test reported for this molecule. Item: O=C(Nc1ccc([N+](=O)[O-])cc1)c1cc2ccccc2cc1O
true

Write down the call the test reported for this molecule. Item: C#C[C@]1(O)CC[C@H]2[C@@H]3CC=C4c5sc(-c6cccc(Br)c6)nc5CC[C@]4(C)[C@H]3CC[C@@]21C
true

Write down the call the test reported for this molecule. Item: Cc1c2c(cc3c1[nH]c1ccccc13)C=NCC2
false

Write down the call the test reported for this molecule. Item: COc1cccc(/C=N\Nc2ccc([N+](=O)[O-])cn2)c1O
false

Write down the call the test reported for this molecule. Item: CCOC(=O)C1=C(C(=O)OCC)N(c2cc(OC)c(OC)c(OC)c2)C(N)=C(C#N)C1c1cc(=O)[nH]c2ccccc12 (stereo not given)
false

Write down the call the test reported for this molecule. Item: COC(=O)[C@@H](Cc1c[nH]c2ccccc12)NC(=O)/C=C/c1ccccc1
false

Write down the call the test reported for this molecule. Item: CNC1=C([N+](=O)[O-])C(c2ccccc2O)C(C#N)=C(c2cccs2)O1 (stereo not given)
false

* * *

Tested on: NCI-H522 lung
Assay: NCI-60 one-dose screen, 48 h (100 = growth as untreated, 0 = no growth, -100 = all killed)
Conditions: 10 µM unless noted
Procedure: Growth inhibition of the NCI-H522 human Non-Small Cell Lung tumor cell line is measured as a screen for anti-cancer activity. Cells are grown in 96 well plates and exposed to the test compound for 48 hours. Compounds are tested at a single concentration, which is 10^-5 M for most compounds. The reported endpoint is percent growth (GI% or GIPRCNT), where numbers from 0 - 100% represent growth inhibition, and numbers from -100% - 0 represent cell death. […]
This is part of a sample that, as a whole, favours compounds with a hit. Of some 83,000 tested, about 20% had one in any assay.
Measured Property: growth (%)
Give the quantity in %, number only.

Find the measured growth of Clc1cccc(CNc2c3ccccc3nc3ccccc23)c1 and report it.
41.7

Find the measured growth of CSc1ccc(/C=C2\C=C(CC(=O)NCc3ccc(C(=O)c4ccccc4)cc3)c3cc(F)ccc32)cc1 and report it.
-38.5

Find the measured growth of COc1ccc(N=C2CSc3nnc(-c4cc(F)c(Cl)cc4Cl)n3N2)cc1 and report it.
-27.7

Find the measured growth of C=C1C(=O)O[C@H]2[C@H]1CC/C(COC(=O)NCc1c[nH]c3ccc(OC)cc13)=C\CC[C@@]1(C)O[C@@H]21 and report it.
-72.8

Find the measured growth of CC(C)CCC(=O)[C@@H](C)[C@H]1[C@@H](OC2OCC(O)C(O)C2NS(C)(=O)=O)C[C@H]2[C@@H]3CC=C4C[C@@H](O)CC[C@]4(C)[C@H]3CC[C@]12C (some centres undefined) and report it.
20.7

Find the measured growth of C(=Nc1ccc(-c2ccc(N=Cc3ccccc3)cc2)cc1)c1ccccc1 and report it.
70

Find the measured growth of Clc1cc(Cl)cc(-c2cnc3nonc3n2)c1 and report it.
-69.3

Find the measured growth of CCn1c(=O)c(C(=O)NCCCO)c(O)c2ccccc21 and report it.
101

Find the measured growth of CCCCOC(=O)c1cc(O)c(O)c(O)c1 and report it.
-1.17

* * *

test system: HS 578T breast; assay: NCI-60 one-dose screen, 48 h (100 = growth as untreated, 0 = no growth, -100 = all killed); settings: 10 µM unless noted
This is part of a sample that, as a whole, favours compounds with a hit. Of some 83,000 tested, about 20% had one in any assay.
Measured Property: growth (%)
Give the quantity in %, number only.

Report the value of growth obtained on HS 578T breast for CCN(CC)CCNC(=O)n1cc(-c2ccncc2)c(-c2ccc(Cl)c(OC)c2)n1 .
90.1

Report the value of growth obtained on HS 578T breast for CCC(=O)NC1=C(Cl)C(=O)C(NC(=O)CC)=C(Cl)C1=O .
135

Report the value of growth obtained on HS 578T breast for COc1ccc(/C=N/NC(N)=S)c(OC)n1 .
103

Report the value of growth obtained on HS 578T breast for COc1ccccc1/C=C/C(=O)CCC(=O)O .
96

Report the value of growth obtained on HS 578T breast for COCc1nc(NS(=O)(=O)c2ccc(N)cc2)nc(C)c1Br .
112

Report the value of growth obtained on HS 578T breast for CC(=O)Nc1ccc(/C=N/N2CCCCCC2)cc1 .
96.3

Report the value of growth obtained on HS 578T breast for CN1C(=O)NC(Cc2c[nH]c3c(Cl)cccc23)C1=O (stereo not given) .
103

Report the value of growth obtained on HS 578T breast for COc1cc(NC(=O)CSc2nc3ccc(Cl)cc3c(=O)n2Cc2ccccc2)cc(OC)c1OC .
47.4

Report the value of growth obtained on HS 578T breast for CCOC(=O)C(Cc1ccccc1)n1c(O)c(/C=N/c2ncc(Cc3ccc(Cl)cc3Cl)s2)sc1=S (stereo not given) .
-3.53

Report the value of growth obtained on HS 578T breast for O=C(Nc1cccc(-n2ccc3c(NC(=O)c4ccccc4)nccc32)c1)c1ccc(N2CCOCC2)c(C(F)(F)F)c1 .
55.5

* * *

system: BT-549 breast; assay: NCI-60 one-dose screen, 48 h (100 = growth as untreated, 0 = no growth, -100 = all killed); conditions: 10 µM unless noted
This is part of a sample that, as a whole, favours compounds with a hit. Of some 83,000 tested, about 20% had one in any assay.
Measured Property: growth (%)
Give the quantity in %, number only.

Report the value of growth obtained on BT-549 breast for COc1cc(C2CC(c3ccc(C)cc3)=NN2C=O)ccc1Oc1ccnc2cc(Cl)ccc12 (centres undefined) .
43.8

Report the value of growth obtained on BT-549 breast for COc1cc(C2CC(c3ccccc3)=NN2C=O)ccc1Oc1ccnc2cc(Cl)ccc12 (centres undefined) .
46

Report the value of growth obtained on BT-549 breast for COc1cc(OC)c(C(=O)/C=C/c2cccc(OC(C)=O)c2)cc1CC=C(C)C .
81.8

Report the value of growth obtained on BT-549 breast for NC(=S)N1N=C(c2ccc(Cl)cc2)CC1c1cc2ccccc2[nH]c1=O (centres undefined) .
102

Report the value of growth obtained on BT-549 breast for CC1=CCC2C1CC=C(C)C(CC[C@H]1[C@@](C)(O)CCC3OC(C)(C)[C@H](OC(=O)c4ccccc4)CC[C@@]31C)C2(C)C (some centres undefined) .
106

Report the value of growth obtained on BT-549 breast for CCOC(=O)C1=C(C)NC(=S)NC1c1ccccc1 (centres undefined) .
110

Report the value of growth obtained on BT-549 breast for CS(=O)(=O)c1ccc(C(=O)N2N=C(c3ccccc3)CC2c2ccc3c(c2)OCO3)cc1 (centres undefined) .
86.3

Report the value of growth obtained on BT-549 breast for COc1ccc(-c2nc3c(c(-c4ccc(Cl)cc4)nn3-c3ccccc3)c(-c3ccc(O)cc3)c2C#N)cc1 .
54.4

Report the value of growth obtained on BT-549 breast for FC(F)(F)c1cc(-c2nnc3n2N=C(Cl)CS3)cc(C(F)(F)F)c1 .
88.4

* * *

tested on: IGROV1 ovarian; test: NCI-60 one-dose screen, 48 h; conditions: 10 µM unless noted
The panel holds about 83,000 compounds, 20% with a hit somewhere; the sample as a whole holds those more often. Activity calls are given as the source filed them. How the source made its calls: active means growth percent below 10; inactive means the rest.
Answer with one of the outcomes class 1 (active), class 0 (inactive)

Write down the call the test reported for this compound. Item: CCOC(=O)c1cc(N)nc2ccccc12
class 0

Write down the call the test reported for this compound. Item: CC(C)(C)[Si](C)(C)OC1[C@@H](O[Si](C)(C)C(C)(C)C)[C@@H](CNC(=O)NC(=O)NC(=O)CI)O[C@H]1n1cnc2c(NC(=O)Nc3ccccc3)ncnc21 (stereo partly specified)
class 1

Write down the call the test reported for this compound. Item: CC(=O)O[C@H]1CC[C@]2(C)[C@H]3CC=C4[C@@H]5CC(C)(C)CC[C@]5(C(=O)OCC(COC(=O)C(Cl)Cl)(COC(=O)C(Cl)Cl)NC(=O)C(Cl)Cl)CC[C@@]4(C)[C@]3(C)CC[C@H]2C1(C)C
class 0

Write down the call the test reported for this compound. Item: CC(C)(CCc1ccccn1)C(=O)CCCc1ccccn1
class 0

Write down the call the test reported for this compound. Item: CC(=O)Oc1c(Cl)c(Cl)c(Cl)c(Cl)c1Cl
class 0

Write down the call the test reported for this compound. Item: O=C1/C=C/[C@@H](O)[C@@H]2C[C@@H](O)C[C@H]2/C=C/CCC[C@H]([C@@H](O)CO)O1
class 0

Write down the call the test reported for this compound. Item: O=C(/C=C/c1cn(-c2ccccc2)nc1-c1ccccc1)OCc1cn(-c2cccc([N+](=O)[O-])c2)nn1
class 0

Write down the call the test reported for this compound. Item: CCOC(=O)C(Cc1ccccc1)n1c(O)c(/C=N/c2ncc(Cc3ccc(Cl)cc3Cl)s2)sc1=S (stereo unspecified)
class 0

Write down the call the test reported for this compound. Item: N#Cc1ccc(-c2ccc(-c3cccs3)o2)cc1F
class 0

Write down the call the test reported for this compound. Item: O=C(c1ccccc1)C1OC1C(=O)c1ccccc1 (stereo unspecified)
class 0

Write down the call the test reported for this compound. Item: Clc1cc2nc(-c3ccccc3)c(-c3ccccc3)nc2cc1Cl
class 0

Write down the call the test reported for this compound. Item: COc1ccc(CC2c3cc(OC)c(OC)cc3CC[N+]2(C)CCC(=O)OCCCCCOC(=O)CC[N+]2(C)CCc3cc(OC)c(OC)cc3C2Cc2ccc(OC)c(OC)c2)cc1OC (stereo unspecified)
class 0

Write down the call the test reported for this compound. Item: CCOC(=O)Nc1ccc2nc(Sc3ccc(Cl)cc3)sc2c1
class 0

Write down the call the test reported for this compound. Item: CCOC(=O)CCN(CCC(=O)OCC)c1ccccc1
class 0

Write down the call the test reported for this compound. Item: O=C(N/N=C/c1ccc([N+](=O)[O-])o1)c1ccc(O)cc1
class 0

Write down the call the test reported for this compound. Item: C=CCOC(=O)C1=C(C)NC2=C(C(=O)CCC2)C1c1ccc(F)cc1 (stereo unspecified)
class 0

Write down the call the test reported for this compound. Item: COc1cc(OC)cc(-c2ccc(-c3ccc(C(=N)N)s3)s2)c1
class 1

Write down the call the test reported for this compound. Item: CCn1c(=O)c(C(=O)NCCCO)c(O)c2ccccc21
class 0

Write down the call the test reported for this compound. Item: Cc1cccc(/C=N/n2c(-c3ccc(Cl)cc3)nc3c(Br)cc(Br)cc3c2=O)c1
class 0

Write down the call the test reported for this compound. Item: NS(=O)(=O)c1ccc(CCn2c(SCC(=O)N/N=C/c3cc4ccccc4[nH]3)nc3ccccc3c2=O)cc1
class 0

Write down the call the test reported for this compound. Item: O=C1N(Cc2ccccc2Cl)c2ccccc2C12NN=C(c1ccccc1)S2 (stereo unspecified)
class 0

Write down the call the test reported for this compound. Item: COc1ccc2nc3ccccc3c(NCc3ccc(Cl)cc3)c2c1
class 0

Write down the call the test reported for this compound. Item: O=C(CC(=O)c1cccc(Cl)c1)c1cccc(Cl)c1
class 0

Write down the call the test reported for this compound. Item: COc1cc(NCC(O)CN(CC(C)C)CC(C)C)c2ncccc2c1 (stereo unspecified)
class 0

Write down the call the test reported for this compound. Item: Cc1cc(Nc2c3ccccc3nc3ccccc23)ccc1NS(C)(=O)=O
class 0

Write down the call the test reported for this compound. Item: C#Cc1cccc(Nc2nc3cc([N+](=O)[O-])ccc3nc2Nc2ccc(O)cc2)c1
class 0

Write down the call the test reported for this compound. Item: COc1cc(/C=C\c2cc(/C=C\c3ccc(O)c(OC)c3)n(C(=O)Nc3ccc(C(F)(F)F)cc3)n2)ccc1O
class 0

Write down the call the test reported for this compound. Item: O=C(/C=C/c1ccco1)c1ccccc1O
class 0

Write down the call the test reported for this compound. Item: CCCC(CCC)(C(N)=O)C(=O)O
class 0

Write down the call the test reported for this compound. Item: CCN(CC)c1cc(C)c(Cc2c(OC)ccc3ccccc23)cc1C
class 0

Write down the call the test reported for this compound. Item: COc1ccc2[nH]cc(C3(c4c[nH]c5ccc(OC)cc45)C(=O)Nc4ccc(Cl)cc43)c2c1
class 0

Write down the call the test reported for this compound. Item: COc1cccc(/C=N\Nc2ccc([N+](=O)[O-])cn2)c1O
class 0

Write down the call the test reported for this compound. Item: Cc1ccc(OC2=C(C#N)C(=N)N3C(=NN2)Sc2c(C)ccc(C)c23)cc1
class 0

Write down the call the test reported for this compound. Item: Nc1c(C(=O)C[C@@H](N)CO)ccc2c1C(=O)CCO2
class 0

Write down the call the test reported for this compound. Item: CCCCCCCCCCCCCC
class 0

Write down the call the test reported for this compound. Item: CC(C)(C)c1ccc(OC(=O)Nc2ccccc2)cc1
class 0

Write down the call the test reported for this compound. Item: COc1ccc(Nc2nc(N)nc3c(=O)[nH]ccc23)cc1
class 0

Write down the call the test reported for this compound. Item: c1csc(-c2cnc3nonc3n2)c1
class 0

Write down the call the test reported for this compound. Item: CC(C)(C)OC[C@@H]1N=C(c2ccc(Br)cc2)Nc2nc3ccccn3c2C1=O
class 0

Write down the call the test reported for this compound. Item: COc1cnc2c(c1)C(=O)c1c-2n(CCCN2CCN(C)CC2)c(=O)c2cc(Cl)ccc12
class 0

Write down the call the test reported for this compound. Item: COc1cc(C2CC(c3ccc(C)cc3)=NN2C=O)ccc1Oc1ccnc2cc(Cl)ccc12 (stereo unspecified)
class 0
